# measurement-notes: PSAC antagonists in infected red cells, primary screen, cell-based, P. falciparum Indochina, OD700, 1 h (AID 1154)
# measurement-conditions: P. falciparum Indochina infected RBC osmotic lysis, called active from +8 up or from −8 down
Active and inactive are the calls of the source.
Classes used: active, inactive

compound | label
CCCCC(=C=CC[C@@H](O)c1ccc(OCCO)cc1)C[C@@H](O)COCc1ccccc1 | active
C[n+]1ccc(CCCO)cc1 | inactive
Cc1ccc(S[C@]2(C(=O)NC(C)C)CC(=O)N(Cc3ccccc3C(F)(F)F)[C@@H]2c2ccc(CO)cc2I)cc1 | active
CC(C)N1CC=CC23O[C@@H]4C=CCOC(=O)[C@@H]4[C@H]2C(=O)N(C(C)CO)[C@@H]3C1=O (some centres undefined) | inactive
CCCCC(CC)C(O)C1C=CC2C(=O)N(c3ccccc3)C(=O)C2N1Nc1ccc([N+](=O)[O-])cc1 (centres undefined) | inactive
COCCOC(=O)N1C(=O)[C@@]2(c3cc(C#CCNC(N)=O)ccc31)[C@H](C(=O)N1CCCCCCC1)[C@H]1C(=O)O[C@H](c3ccccc3)[C@H](c3ccccc3)N1[C@@H]2c1ccc(O)cc1 | inactive
C=CCOC(=O)[C@H]1[C@@H]2C(=O)O[C@@H](c3ccccc3)[C@@H](c3ccccc3)N2[C@@H](c2ccc(OCCOC(=O)[C@H]3C[C@H]4C(=O)N[C@@H](Cc5ccccc5)C(=O)N4[C@H]3c3ccc(O)cc3)cc2)[C@]12C(=O)Nc1ccc(I)cc12 | inactive
COc1cc2c(cc1OC)CN(C(=O)[C@H]1[C@@H]3C(=O)O[C@@H](c4ccccc4)[C@@H](c4ccccc4)N3[C@@H](c3ccc(OCCO)cc3)[C@]13C(=O)Nc1ccc(C#CCCO)cc13)CC2 | inactive
Cc1ccc(S[C@]2(C(=O)NC3CC3)CC(=O)N(Cc3ccccc3Cl)[C@@H]2c2ccc(CO)cc2I)cc1 | inactive
COc1ccc(NC(=O)O[C@H]2[C@H](OC(=O)Nc3ccc4c(c3)OCO4)[C@@H](OC(=O)Nc3ccc4c(c3)OCO4)[C@@H](OC)O[C@@H]2CO)cc1 | inactive
O=C1O[C@H](c2ccccc2)[C@H](c2ccccc2)N2[C@H]1[C@@H](C(=O)O)[C@]1(C(=O)Nc3ccccc31)[C@H]2c1ccc(O)cc1 | inactive
CN(C)CCCCNC(=O)[C@H]1C[C@H]2C(=O)N3CCC[C@H]3C(=O)N2[C@H]1c1ccc(O)cc1 | inactive
CC(C)C(O)C1C=CC2C(=O)N(C)C(=O)C2N1N(c1ccccc1)c1ccccc1 (centres undefined) | inactive
Cc1ccc(S[C@]2(C(=O)NCC(F)(F)F)CC(=O)N(Cc3ccccc3)[C@@H]2c2ccc(CO)cc2)cc1 | inactive
